Just for reference, ChEMBL document CHEMBL4043204 is where these values come from.

Provide the recorded selectivity ratio for the entries that follow.
# assay_explanation: Selectivity index, ratio of IC50 for cytotoxicity against African green monkey Vero cells to MIC for Mycobacterium tuberculosis H37Rv ATCC 27294
# Format: toxicity, cell-based
# details: read-out: Selectivity Index

input: Respond only with selectivity ratio recorded for COc1cc(C[C@@H](C)[C@@H](C)Cc2ccc(OC(=O)c3ccccn3)c(OC)c2)ccc1O (racemic)
output: 1.3

input: Respond only with selectivity ratio recorded for COc1cc(C[C@@H](C)[C@@H](C)Cc2ccc(OC(C)=O)c(OC)c2)ccc1O (racemic)
output: 2.23

input: Respond only with selectivity ratio recorded for COc1cc(C[C@@H](C)[C@@H](C)Cc2ccc(OCCN3CCCC3)c(OC)c2)ccc1O (racemic)
output: > 39

input: Respond only with selectivity ratio recorded for COc1cc(C[C@@H](C)[C@@H](C)Cc2ccc(OCCN3CCOCC3)c(OC)c2)ccc1OCCN1CCOCC1
output: 2.87

input: Respond only with selectivity ratio recorded for COc1cc(C[C@@H](C)[C@@H](C)Cc2ccc(OC(=O)c3ccc(Br)cc3)c(OC)c2)ccc1O (racemic)
output: 8.93

input: Respond only with selectivity ratio recorded for COc1cc(C[C@@H](C)[C@@H](C)Cc2ccc(OCCN3CCCC3)c(OC)c2)ccc1OCCN1CCCC1
output: > 19.5

input: Respond only with selectivity ratio recorded for COc1cc(C[C@@H](C)[C@@H](C)Cc2ccc(OC(=O)c3ccccc3[N+](=O)[O-])c(OC)c2)ccc1O (racemic)
output: 7.76

input: Respond only with selectivity ratio recorded for CC[C@@H](CO)NCCN[C@@H](CC)CO
output: 125

input: Respond only with selectivity ratio recorded for COc1cc(C[C@@H](C)[C@@H](C)Cc2ccc(OCCN(C)C)c(OC)c2)ccc1OCCN(C)C
output: > 77.9

input: Respond only with selectivity ratio recorded for COc1cc(C[C@@H](C)[C@@H](C)Cc2ccc(OCCN3CCCCC3)c(OC)c2)ccc1O (racemic)
output: 5.01

input: Respond only with selectivity ratio recorded for COc1cc(C[C@@H](C)[C@@H](C)Cc2ccc(OC(=O)c3cccnc3)c(OC)c2)ccc1OC(=O)c1cccnc1
output: 2.9

input: Respond only with selectivity ratio recorded for COc1cc(C[C@@H](C)[C@@H](C)Cc2ccc(OC)c(OC)c2)ccc1O (racemic)
output: 0.96

input: Respond only with selectivity ratio recorded for COc1cc(C[C@@H](C)[C@@H](C)Cc2ccc(OC(C)=O)c(OC)c2)ccc1OC(C)=O
output: 1.9

input: Respond only with selectivity ratio recorded for COc1cc(C[C@@H](C)[C@@H](C)Cc2ccc(OC(=O)c3ccccc3)c(OC)c2)ccc1O (racemic)
output: 9.97

input: Respond only with selectivity ratio recorded for COc1cc(C[C@@H](C)[C@@H](C)Cc2ccc(OCCN3CCCCC3)c(OC)c2)ccc1OCCN1CCCCC1
output: 23.4

input: Respond only with selectivity ratio recorded for COc1cc(C[C@@H](C)[C@@H](C)Cc2ccc(OC(=O)c3cnccn3)c(OC)c2)ccc1O (racemic)
output: 0.86

input: Respond only with selectivity ratio recorded for COc1cc(C[C@@H](C)[C@@H](C)Cc2ccc(OCCN(C)C)c(OC)c2)ccc1O (racemic)
output: 26.1

input: Respond only with selectivity ratio recorded for CCN(CC)CCOc1ccc(C[C@@H](C)[C@@H](C)Cc2ccc(OCCN(CC)CC)c(OC)c2)cc1OC
output: 1.45

input: Respond only with selectivity ratio recorded for COc1cc(C[C@@H](C)[C@@H](C)Cc2ccc(OC(=O)c3cccnc3)c(OC)c2)ccc1O (racemic)
output: 1.43
